All values here come from patent EP0252525B1.

Biological target: HSA (Homo sapiens, UniProt P0DUB6)
Sequence (P0DUB6 16-511): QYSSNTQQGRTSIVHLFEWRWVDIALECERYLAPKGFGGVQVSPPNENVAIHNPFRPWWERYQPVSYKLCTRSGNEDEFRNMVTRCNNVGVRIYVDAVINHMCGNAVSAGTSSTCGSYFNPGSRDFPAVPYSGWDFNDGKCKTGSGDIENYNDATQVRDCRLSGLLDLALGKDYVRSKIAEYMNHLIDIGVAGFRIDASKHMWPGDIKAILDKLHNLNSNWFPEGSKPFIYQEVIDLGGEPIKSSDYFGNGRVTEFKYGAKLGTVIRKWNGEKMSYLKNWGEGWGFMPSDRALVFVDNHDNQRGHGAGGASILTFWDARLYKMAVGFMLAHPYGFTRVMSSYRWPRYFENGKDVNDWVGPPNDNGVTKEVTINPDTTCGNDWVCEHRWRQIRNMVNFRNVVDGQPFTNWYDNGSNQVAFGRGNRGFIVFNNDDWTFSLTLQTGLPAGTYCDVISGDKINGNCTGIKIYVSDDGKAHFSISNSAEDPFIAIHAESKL
Experiment: Binding mode (distribution of hydrolysis products) by HPLC
Assay type: biochemical
Details: share of product G3P
valueType: Hydrolysis product G3P (%)
Report as a plain number; the unit % is understood.

>  <molecule>
O=[N+]([O-])c1ccc(O[C@H]2O[C@H](CO)[C@@H](O[C@H]3O[C@H](CO)[C@@H](O[C@H]4O[C@H](CO)[C@@H](O[C@H]5O[C@H](CO)[C@@H](O[C@H]6O[C@H](CO)[C@@H](O[C@H]7O[C@H](CO)[C@@H](O[C@H]8O[C@H](CO)[C@@H](O)[C@H](O)[C@H]8O)[C@H](O)[C@H]7O)[C@H](O)[C@H]6O)[C@H](O)[C@H]5O)[C@H](O)[C@H]4O)[C@H](O)[C@H]3O)[C@H](O)[C@H]2O)cc1 [Substrate G7P]

>  <scaleUnit>
%

>  <Hydrolysis product G3P>
30

$$$$

Prompt: Which Hydrolysis product G3P is listed for O=[N+]([O-])c1ccc(O[C@H]2O[C@H](CO)[C@@H](O[C@H]3O[C@H](CO)[C@@H](O[C@H]4O[C@H](CO)[C@@H](O[C@H]5O[C@H](CO)[C@@H](O[C@H]6O[C@H](CO)[C@@H](O[C@H]7O[C@@H]8COC(c9ccccc9)O[C@H]8[C@H](O)[C@H]7O)[C@H](O)[C@H]6O)[C@H](O)[C@H]5O)[C@H](O)[C@H]4O)[C@H](O)[C@H]3O)[C@H](O)[C@H]2O)cc1 (stereo partly shown) [BDG6P] ?
Completion: 10

Prompt: What does the record list as Hydrolysis product G3P for O=[N+]([O-])c1ccc(O[C@H]2O[C@H](CO)[C@@H](O[C@H]3O[C@H](CO)[C@@H](O[C@H]4O[C@H](CO)[C@@H](O[C@H]5O[C@H](COCc6ccccc6)[C@@H](O)[C@H](O)[C@H]5O)[C@H](O)[C@H]4O)[C@H](O)[C@H]3O)[C@H](O)[C@H]2O)cc1 [BG4P] ?
Completion: 0

Prompt: Please look up its Hydrolysis product G3P: O=[N+]([O-])c1ccc(O[C@H]2O[C@H](CO)[C@@H](O[C@H]3O[C@H](CO)[C@@H](O[C@H]4O[C@H](CO)[C@@H](O[C@H]5O[C@H](CO)[C@@H](O[C@H]6O[C@H](CO)[C@@H](O)[C@H](O)[C@H]6O)[C@H](O)[C@H]5O)[C@H](O)[C@H]4O)[C@H](O)[C@H]3O)[C@H](O)[C@H]2O)cc1 [Substrate G5P]
Completion: 11

Prompt: Find the recorded Hydrolysis product G3P belonging to O=[N+]([O-])c1ccc(O[C@H]2O[C@H](CO)[C@@H](O[C@H]3O[C@H](CO)[C@@H](O[C@H]4O[C@H](CO)[C@@H](O[C@H]5O[C@H](CO)[C@@H](O[C@H]6O[C@H](CO)[C@@H](O[C@H]7O[C@H](CO)[C@@H](O[C@H]8O[C@H](COCc9ccccc9)[C@@H](O)[C@H](O)[C@H]8O)[C@H](O)[C@H]7O)[C@H](O)[C@H]6O)[C@H](O)[C@H]5O)[C@H](O)[C@H]4O)[C@H](O)[C@H]3O)[C@H](O)[C@H]2O)cc1 [BG7P] and report it.
Completion: 38

Prompt: Sample O=[N+]([O-])c1ccc(O[C@H]2O[C@H](CO)[C@@H](O[C@H]3O[C@H](CO)[C@@H](O[C@H]4O[C@H](CO)[C@@H](O[C@H]5O[C@H](CO)[C@@H](O[C@H]6O[C@H](COCc7ccccc7)[C@@H](O)[C@H](O)[C@H]6O)[C@H](O)[C@H]5O)[C@H](O)[C@H]4O)[C@H](O)[C@H]3O)[C@H](O)[C@H]2O)cc1 [BG5P] — what was its Hydrolysis product G3P?
Completion: 0

Prompt: I have this molecule here, O=[N+]([O-])c1ccc(O[C@H]2O[C@H](CO)[C@@H](O[C@H]3O[C@H](CO)[C@@H](O[C@H]4O[C@H](CO)[C@@H](O[C@H]5O[C@H](CO)[C@@H](O[C@H]6O[C@H](CO)[C@@H](O[C@H]7O[C@H](COCc8ccccc8)[C@@H](O)[C@H](O)[C@H]7O)[C@H](O)[C@H]6O)[C@H](O)[C@H]5O)[C@H](O)[C@H]4O)[C@H](O)[C@H]3O)[C@H](O)[C@H]2O)cc1 [BG6P] , and I need its recorded Hydrolysis product G3P.
Completion: 68
